- TARGET: human PPAR delta (Homo sapiens)
- Sequence (Q03181 139-441): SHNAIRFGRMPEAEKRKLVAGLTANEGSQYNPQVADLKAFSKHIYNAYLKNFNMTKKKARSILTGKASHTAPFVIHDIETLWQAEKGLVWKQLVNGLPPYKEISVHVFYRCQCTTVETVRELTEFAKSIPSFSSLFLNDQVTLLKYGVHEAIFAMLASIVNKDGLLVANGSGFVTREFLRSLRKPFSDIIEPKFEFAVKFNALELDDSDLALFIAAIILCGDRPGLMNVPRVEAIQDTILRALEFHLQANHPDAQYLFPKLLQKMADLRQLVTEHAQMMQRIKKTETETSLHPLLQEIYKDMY
- TEST_DETAILS: cell-based
pEC50: −log10 of the molar value.

| COMPOUND_STRING | pEC50 |
| --- | --- |
| CCCc1c(OCCCOc2ccc(OCC(=O)O)cc2)ccc(C(C)=O)c1O | 7.41 |

* * *

- TARGET: human PPAR alpha (Homo sapiens)
- Construct: human PPAR alpha receptor (amino acids S167-Y468)
- Sequence (Q07869 167-468): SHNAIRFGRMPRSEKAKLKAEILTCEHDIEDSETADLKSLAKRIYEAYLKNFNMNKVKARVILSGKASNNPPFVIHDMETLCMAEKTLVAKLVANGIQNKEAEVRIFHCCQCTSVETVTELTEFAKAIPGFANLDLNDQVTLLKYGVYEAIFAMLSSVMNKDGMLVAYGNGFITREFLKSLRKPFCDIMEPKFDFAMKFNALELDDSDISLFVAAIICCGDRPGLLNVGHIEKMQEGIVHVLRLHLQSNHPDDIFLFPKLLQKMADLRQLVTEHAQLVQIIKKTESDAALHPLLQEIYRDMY
- TEST_DETAILS: Cellular PPAR alpha GAL4/luciferase reporter assay (HEK reporter cell line)
pEC50: −log10 of the molar value.

| COMPOUND_STRING | TARGET | pEC50 |
| --- | --- | --- |
| CCCc1c(OCCCOc2ccc(OCC(=O)O)cc2)ccc(C(C)=O)c1O | human PPAR alpha (Homo sapiens) | 5.96 |
